# Protocol: wn = mass fraction of the nth substance listed
# Assay setup: 298.15 K; 101 kPa; Liquid; Vibrating tube method; w1 = 0.2
Attribute measured: mass density (kg/m3)

{"columns": ["Molecule", "Reported"],
 "data": [
  ["CC(O)CN(CC(C)O)CC(C)O (centres undefined) [triisopropanolamine] + O", 1011.66],
  ["CC(O)CN (centres undefined) [1-amino-2-propanol] + O", 1001.03],
  ["OCCNCCO [diethanolamine] + O", 1020.92],
  ["CC(O)CNCC(C)O (centres undefined) [N-(2-hydroxypropyl)-2-hydroxy-1-propanamine] + O", 1010.4]
]}

###

# Protocol: refractive index (Na D-line) (dimensionless); wn = mass fraction of the nth substance listed
# Assay setup: 333.15 K; 101 kPa; Liquid; Standard Abbe refractometry; w1 = 0.25
Attribute measured: refractive index

{"columns": ["Molecule", "refractive index"],
 "data": [
  ["CC(O)CNCC(C)O (centres undefined) [N-(2-hydroxypropyl)-2-hydroxy-1-propanamine] + O", 1.36175],
  ["CC(O)CN (centres undefined) [1-amino-2-propanol] + O", 1.35861],
  ["OCCNCCO [diethanolamine] + O", 1.36354],
  ["CC(O)CN(CC(C)O)CC(C)O (centres undefined) [triisopropanolamine] + O", 1.36291]
]}

###

# Protocol: refractive index (Na D-line) (dimensionless); wn = mass fraction of the nth substance listed
# Assay setup: 308.15 K; 101 kPa; Liquid; Standard Abbe refractometry; w1 = 0.2
Attribute measured: refractive index

{"columns": ["Compound", "Reported"],
 "data": [
  ["CC(O)CN(CC(C)O)CC(C)O (centres undefined) [triisopropanolamine] + O", 1.36133],
  ["OCCNCCO [diethanolamine] + O", 1.36028],
  ["CC(O)CNCC(C)O (centres undefined) [N-(2-hydroxypropyl)-2-hydroxy-1-propanamine] + O", 1.36036],
  ["CC(O)CN (centres undefined) [1-amino-2-propanol] + O", 1.35767]
]}

###

# Protocol: wn = mass fraction of the nth substance listed
# Assay setup: 338.15 K; 101 kPa; Liquid; Concentric cylinders viscometry; w1 = 0.1
Attribute measured: viscosity (mPa·s)

{"columns": ["Molecule", "viscosity / mPa·s"],
 "data": [
  ["CC(O)CN(CC(C)O)CC(C)O (centres undefined) [triisopropanolamine] + O", 0.6134],
  ["CC(O)CN (centres undefined) [1-amino-2-propanol] + O", 0.6053],
  ["CC(O)CNCC(C)O (centres undefined) [N-(2-hydroxypropyl)-2-hydroxy-1-propanamine] + O", 0.6341],
  ["OCCNCCO [diethanolamine] + O", 0.5932]
]}

###

# Protocol: refractive index (Na D-line) (dimensionless); wn = mass fraction of the nth substance listed
# Assay setup: 303.15 K; 101 kPa; Liquid; Standard Abbe refractometry; w1 = 0.2
Attribute measured: refractive index

{"columns": ["Compound", "refractive index"],
 "data": [
  ["CC(O)CN(CC(C)O)CC(C)O (centres undefined) [triisopropanolamine] + O", 1.36227],
  ["CC(O)CN (centres undefined) [1-amino-2-propanol] + O", 1.35875],
  ["CC(O)CNCC(C)O (centres undefined) [N-(2-hydroxypropyl)-2-hydroxy-1-propanamine] + O", 1.3613],
  ["OCCNCCO [diethanolamine] + O", 1.36108]
]}
